Reference source for all entries: paper PMC5672931

test: pharmacokinetics, plasma concentrations by LC-MS/MS; details: human, plasma, intravenous, 10.4 mg m^−2, Tmax, median, 24-h infusion, 10.4 mg m^−2, n=2
Assay readout: Tmax (h)
Give bare numbers, in h.

Problem: # input compound: CCc1cnn2c(NCc3ccc[n+]([O-])c3)cc(N3CCCC[C@H]3CCO)nc12 [dinaciclib, Dinaciclib] ; wanted: its Tmax
Solution: 15

* * *

assay: pharmacokinetics, plasma concentrations by LC-MS/MS; details: human, plasma, intravenous, 7.4 mg m^−2, AUC(tf), mean, 24-h infusion, 7.4 mg m^−2, n=4
Assay readout: AUC (ng·h/mL)
Numbers only, in ng·h/mL.

Problem: # input compound: CCc1cnn2c(NCc3ccc[n+]([O-])c3)cc(N3CCCC[C@H]3CCO)nc12 [dinaciclib, Dinaciclib] ; wanted: its AUC
Solution: 877
